experiment: Stability of the compound in human serum assessed as compound remaining at 37 degC after 24 hrs by RP-HPLC analysis; type: ADME, cell-free; conditions: read-out: Stability
readoutName: remaining at 24 h (%)

Cc1c(-c2ccc(-c3ccccc3F)cc2)nc2ccc(F)cc2c1C(=O)O [BREQUINAR]; 98

---

target: Dihydroorotate dehydrogenase (quinone), mitochondrial (Homo sapiens); experiment: Inhibition of recombinant N-terminal GST-tagged human DHODH (31 to 395 residues) expressed in Escherichia coli BL21(DE3) assessed as inhibition of DCIP reduction using dihydroorotate as substrate preincubated for 5 mins followed by substrate addition measured after 5 mins
Sequence (Q02127 whole entry, the tested form may be a part): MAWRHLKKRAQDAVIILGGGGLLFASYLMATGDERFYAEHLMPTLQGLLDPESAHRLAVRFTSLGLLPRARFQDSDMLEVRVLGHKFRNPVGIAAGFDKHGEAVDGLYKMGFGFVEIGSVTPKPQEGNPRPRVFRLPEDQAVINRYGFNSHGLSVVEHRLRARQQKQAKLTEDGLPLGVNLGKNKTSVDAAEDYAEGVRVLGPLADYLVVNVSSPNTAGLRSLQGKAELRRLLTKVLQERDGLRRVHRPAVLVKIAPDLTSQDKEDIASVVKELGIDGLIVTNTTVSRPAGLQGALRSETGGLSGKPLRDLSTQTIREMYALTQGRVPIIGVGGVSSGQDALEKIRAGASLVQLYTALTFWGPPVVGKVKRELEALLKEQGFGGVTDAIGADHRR
readoutName: IC50 (nM)

Cn1nc(O)c(C(=O)Nc2c(F)c(F)c(-c3ccccc3)c(F)c2F)n1; 45
